Provide the reported Phage binding ELISA CD28 scFv signal of each item.
subject-of-test: Anti-CD28 scFv (VH-linker 1-VL) (biotinylated for capture on neutravidin plates)
Sequence (scFv, as listed by the source): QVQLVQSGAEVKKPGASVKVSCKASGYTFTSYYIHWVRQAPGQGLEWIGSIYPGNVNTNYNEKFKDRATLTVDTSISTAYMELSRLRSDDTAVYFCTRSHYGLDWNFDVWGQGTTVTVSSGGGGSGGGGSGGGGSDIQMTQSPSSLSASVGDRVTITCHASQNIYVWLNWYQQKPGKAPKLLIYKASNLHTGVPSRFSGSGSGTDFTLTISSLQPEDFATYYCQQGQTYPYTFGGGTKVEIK
method-description: phage ELISA, scFv captured on plate;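 further: crude clonal phage supernatants added to wells preincubated with soluble CD28 or with blocking buffer only, bound phage read out by HRP-linked anti-M13 antibody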
Answers are plain numbers.

{"binder": "MDWCPRHMWNVCFS [Phage-204]", "observed-result": 2.25}
{"binder": "IGKLTLCLNADLVI [Phage-187]", "observed-result": 0.116}
{"binder": "MDWCPRSLWIYCFN [Phage-131]", "observed-result": 2.34}

Moving on to another binder below.
Input MDWCPFYLWDECFL [Phage-165] , output reported Phage binding ELISA CD28 scFv signal.
1.02
